# protocol: recombinant barcode read abundance after kanamycin selection (control-corrected) (log10(CPM+1)); higher = more efficient recombination; sequences stand for … in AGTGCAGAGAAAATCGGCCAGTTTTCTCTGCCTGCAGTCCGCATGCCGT…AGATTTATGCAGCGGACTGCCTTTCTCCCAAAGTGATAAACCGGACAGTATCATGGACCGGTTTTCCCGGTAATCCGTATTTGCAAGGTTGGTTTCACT; site = the 11-nt target;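 further: IS621 recombinase and bridge RNA in Escherichia coli cells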
recombinant barcode read abundance (log10) by entry:
// keep it numeric: no unit symbol after the value

| sequence-record | value-reported |
| --- | --- |
| GTTACGGCTTGGGTTCTAACCTGTTGCCT (site GTTGCGGCTAG) | 0.0497 |
| GATCGAACTTGGGTTCTAACCTGTTGCCT (site AATCGAACTAG) | 0.15 |
| GACGGATCTTGGGTTCTAACCTGTTGCGT (site GACGGATCTAA) | 0.0403 |
| TTCAAGGCTTGGGTTCTAACCTGTTGCCT (site TTCAAGACTAG) | 0.0627 |
| GCGAATCCTTGGGTTCTAACCTGTTGCCT (site GCGCATCCTAG) | 0.213 |
| TCTAGATCTTGGGTTCTAACCTGTTGCCT (site TCTAGAGCTAG) | 0.135 |

recombinant barcode read abundance (log10) for GGGCACTCTTGGGTTCTAACCTGTTGCAT (site GGGCACTCTAT) is 2.22

recombinant barcode read abundance (log10) for CTGCCCTCTTGGGTTCTAACCTGTTGCCT (site CCGCCCTCTAG) is 0.179

recombinant barcode read abundance (log10) for AGACCTTCTTGGGTTCTAACCTGTTGCCT (site ACACCGTCTAG) is 0.0168

recombinant barcode read abundance (log10) for TCGCTACCTTGGGTTCTAACCTGTTGCCT (site TCGCTACCTAG) is 0.109

meta.source: the supplement of paper PMC11208160
